System: RAW264.7
Assay: Anti-inflammatory activity against mouse RAW264.7 cells assessed as inhibition of LPS-stimulated NO production pretreated for 1 hr followed by LPS stimulation and measured after 24 hrs by Griess reagent based assay
Assay type: functional, cell-based
endpoint.name: IC50 (µM)
Answer in µM, number only, no unit symbol.

Recorded IC50 (compound C=C1CC[C@H]2C(C)(C)CCC[C@]2(C)[C@H]1C/C=C1/C(=O)OC[C@H]1O ): 3.91

###

Test: Cytotoxicity against mouse RAW264.7 cells assessed as cell viability at 5 uM incubated for 18 hrs by celltiter-glo luminescent assay relative to control
Assay type: cell-based
Conditions: read-out: Activity
Can you tell me viability at 18 h, 5 µM for the items I'm about to list?
Kindly format the answer as number then unit.

What the record says about C=C1CC[C@H]2C(C)(C)CCC[C@]2(C)[C@H]1C[C@H](O)[C@H]1C(=O)OC[C@H]1O : viability at 18 h, 5 µM is 107%

viability at 18 h, 5 µM recorded for this compound, C=C1CC[C@H]2C(C)(C)CCC[C@]2(C)[C@H]1C/C=C1\CC(OCC)OC1=O (some centres undefined) , is 94.9%

Entry CC1(C)CCC[C@@]2(C)[C@H]1CC[C@]1(CO1)[C@@H]2C/C=C1\CCOC1=O , viability at 18 h, 5 µM reported as 95.1%

Noted for CC1(C)CCC[C@]2(C)[C@H]3CC(=O)O[C@]3(C)CC[C@@H]12 : its viability at 18 h, 5 µM reads 97.2%

Just so you know, measured viability at 18 h, 5 µM for C=C1CC[C@H]2C(C)(C)CCC[C@]2(C)[C@H]1CC=O came out at 101%

response.value for C=C1CC[C@H]2C(C)(C)CCC[C@]2(C)[C@H]1C/C=C1\CC(OC)OC1=O (some centres undefined) (field: viability at 18 h, 5 µM) = 101%

Record C=C1CC[C@H]2C(C)(C)CCC[C@]2(C)[C@H]1C/C=C1/C(=O)OC[C@H]1O , field viability at 18 h, 5 µM: 82.7%

// C=C1CC[C@H]2C(C)(C)CCC[C@]2(C)[C@H]1C/C=C1/CCOC1=O : viability at 18 h, 5 µM value = 95.4%

Query C=C1CC[C@H]2C(C)(C)CCC[C@]2(C)[C@H]1C/C=C1\C=COC1=O yields viability at 18 h, 5 µM of 90.8%

###

Assay: Cytotoxicity against mouse RAW264.7 cells assessed as cell viability at 0.1 uM incubated for 18 hrs by celltiter-glo luminescent assay relative to control
Assay type: cell-based
Conditions: read-out: Activity
endpoint.name: viability at 18 h, 0.1 µM (%)
Report the value in % with no unit label.

For record CC1(C)CCC[C@]2(C)[C@H]3CC(=O)O[C@]3(C)CC[C@@H]12 the listed viability at 18 h, 0.1 µM is 99.3

What the record says about C=C1CC[C@H]2C(C)(C)CCC[C@]2(C)[C@H]1C/C=C1/C(=O)OC[C@H]1O : viability at 18 h, 0.1 µM is 103

Value of viability at 18 h, 0.1 µM reported for the compound C=C1CC[C@H]2C(C)(C)CCC[C@]2(C)[C@H]1C/C=C1\CC(O)OC1=O (stereo partly specified) is 102

Looking up C=C1CC[C@H]2C(C)(C)CCC[C@]2(C)[C@H]1C/C=C1\CCOC1=O , I see its viability at 18 h, 0.1 µM listed as 103

For record C=C1CC[C@H]2C(C)(C)CCC[C@]2(C)[C@H]1C/C=C1\C(=O)OC[C@H]1O the listed viability at 18 h, 0.1 µM is 100

Summary for this compound, C=C1CC[C@H]2C(C)(C)CCC[C@]2(C)[C@H]1C/C=C(\CCO)C(=O)O : viability at 18 h, 0.1 µM is 102

The reported value for C=C1CC[C@H]2C(C)(C)CCC[C@]2(C)[C@H]1C/C=C1/CCOC1=O in terms of viability at 18 h, 0.1 µM is 103

Memo: CC1(C)CCC[C@@]2(C)[C@H]1CC[C@@]1(CO1)[C@@H]2C/C=C1\CCOC1=O , reported viability at 18 h, 0.1 µM: 101

compound CC1(C)CCC[C@@]2(C)[C@H]1CC[C@]1(CO1)[C@@H]2C/C=C1\CCOC1=O , viability at 18 h, 0.1 µM observed: 97.8

Item: C=C1CC[C@H]2C(C)(C)CCC[C@]2(C)[C@H]1/C=C/C1=CCOC1=O | viability at 18 h, 0.1 µM: 104

Note to self: viability at 18 h, 0.1 µM recorded for C=C1CC[C@H]2C(C)(C)CCC[C@]2(C)[C@H]1C/C=C1\CC(OC)OC1=O (stereo partly specified) was 102

// recorded viability at 18 h, 0.1 µM for C=C1CC[C@H]2C(C)(C)CCC[C@]2(C)[C@H]1C/C=C1\CC(OCC)OC1=O (stereo partly specified) : 102

Entry C=C1CC[C@H]2C(C)(C)CCC[C@]2(C)[C@H]1C[C@H](O)[C@H]1C(=O)OC[C@H]1O , viability at 18 h, 0.1 µM reported as 108

According to the records, this compound C=C1CC[C@H]2C(C)(C)CCC[C@]2(C)[C@H]1CC=O displays viability at 18 h, 0.1 µM of 100

The compound listed as C=C1CC[C@H]2C(C)(C)CCC[C@]2(C)[C@H]1C[C@@H](O)C1=CCOC1=O has a reported viability at 18 h, 0.1 µM of 109

viability at 18 h, 0.1 µM recorded for this compound, C=C1CC[C@H]2C(C)(C)CCC[C@]2(C)[C@H]1C/C=C1\C=COC1=O , is 102
